SYSTEM_UNDER_TEST: Plk1 (Homo sapiens)
Sequence (P53350 20-338): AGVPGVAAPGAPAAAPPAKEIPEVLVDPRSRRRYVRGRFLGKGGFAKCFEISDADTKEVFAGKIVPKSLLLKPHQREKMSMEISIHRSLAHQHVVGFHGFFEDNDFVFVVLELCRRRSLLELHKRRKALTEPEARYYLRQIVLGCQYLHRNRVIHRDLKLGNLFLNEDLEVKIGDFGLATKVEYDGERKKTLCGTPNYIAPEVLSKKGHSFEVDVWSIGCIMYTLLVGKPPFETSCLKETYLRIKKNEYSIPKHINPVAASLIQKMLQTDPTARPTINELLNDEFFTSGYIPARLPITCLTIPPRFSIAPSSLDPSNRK
MEASUREMENT_TYPE: Ki

Consider the reported Ki for these molecules:
CN1C(=O)C(C)(C)CN(C2CCCC2)c2nc(Nc3ccc4c(c3)CCN4S(C)(=O)=O)ncc21 = 10 to 100 nM
COc1ccc(CNC(=O)c2ccc(Nc3ncc4c(n3)N(C3CCCC3)CC(C)(C)C(=O)N4C)c(OC)c2)cc1 = < 10 nM
CN1C(=O)C(C)(C)CN(C2CCCC2)c2nc(Nc3ccc(C(=O)NCCO)cc3)ncc21 = < 10 nM
COc1cc(C(=O)NC(C)(C)CO)ccc1Nc1ncc2c(n1)N(C1CCCC1)CC1(CC1)C(=O)N2C = < 10 nM
COc1cc(C(=O)NCCCN2CCN(C)CC2)ccc1Nc1ncc2c(n1)N(C1CCCC1)CC(C)(C)C(=O)N2C = < 10 nM
CN1C(=O)CCN(C2CCCC2)c2nc(Nc3ccc(C(=O)O)cc3)ncc21 = 10 to 100 nM

Answer for every listed entry: what is its Ki? The entries follow.
1. COc1ccccc1Nc1ncc2c(n1)N(C1CCCC1)CC(C)(C)C(=O)N2C
2. CNC(=O)c1ccc(Nc2ncc3c(n2)N(CC2CCC2)CC(C)(C)C(=O)N3C)c(OC)c1
3. COc1cc(C(=O)NCC2CCCO2)ccc1Nc1ncc2c(n1)N(C1CCCC1)CC(C)(C)C(=O)N2C (stereo not drawn)
4. CNC(=O)c1ccc(Nc2ncc3c(n2)N(C2CCCC2)CC(C)(C)C(=O)N3C)c(OC)c1
5. CN1C(=O)C(C)(C)CN(C2CCCC2)c2nc(Nc3cccc(C(=O)NC4CC4)c3)ncc21

1. 10 to 100 nM
2. < 10 nM
3. < 10 nM
4. < 10 nM
5. 10 to 100 nM

Answer for every listed entry: what is its Ki? The entries follow.
1. COc1cc(C(=O)O)ccc1Nc1ncc2c(n1)N(C1CCCC1)CC(C)C(=O)N2C (stereo not drawn)
2. CNC(=O)c1ccc(Nc2ncc3c(n2)N(Cc2ccccc2)CC(C)(C)C(=O)N3C)c(OC)c1
3. COc1cc(C(=O)N[C@H]2CCN(C(C)C)C2)ccc1Nc1ncc2c(n1)N(C1CCCC1)CC(C)(C)C(=O)N2C
4. CN1C(=O)C(C)(C)CN(C2CCCC2)c2nc(Nc3cccc(C(=O)NC4CCOCC4)c3)ncc21

10 to 100 nM
10 to 100 nM
< 10 nM
10 to 100 nM

---

Plk1 (Homo sapiens) measurements of pKi, listed per entry.
pKi: −log10 of the molar value.

Consider the reported pKi for these compounds:
COc1cc(C(=O)NCC(C)(C)CO)ccc1Nc1ncc2c(n1)N(C1CCCC1)CC(C)(C)C(=O)N2C = > 8.00
CNC(=O)c1cccc(Nc2ncc3c(n2)N(C2CCCC2)CC(C)(C)C(=O)N3C)c1 = 7.00 to 8.00
COc1cc(C(=O)NC[C@@H]2CCCC[C@@H]2O)ccc1Nc1ncc2c(n1)N(C1CCCC1)CC1(CC1)C(=O)N2C = > 8.00

Answer for every listed entry: what is its pKi? The entries follow.
1. COc1cc(C(=O)Nc2cc(C)ns2)ccc1Nc1ncc2c(n1)N(C1CCCC1)CC(C)(C)C(=O)N2C
2. COc1cc(C(=O)NC2CCN(C(C)C)CC2)ccc1Nc1ncc2c(n1)N(C1CCCC1)CC(C)(C)C(=O)N2C
3. CCc1cc(C(=O)NC)ccc1Nc1ncc2c(n1)N(C1CCCC1)CC(C)(C)C(=O)N2C
4. COc1cc(C(=O)NCc2ccco2)ccc1Nc1ncc2c(n1)N(C1CCCC1)CC1(CC1)C(=O)N2C
5. COc1cc(C(=O)N[C@H]2CC[C@@H](F)CC2)ccc1Nc1ncc2c(n1)N(C1CCCC1)CC(C)(C)C(=O)N2C
6. COc1cc(C(=O)N2CCN(C(=O)OC(C)(C)C)CC2)ccc1Nc1ncc2c(n1)N(C1CCCC1)CCC(=O)N2C
7. COc1cc(C(=O)NCCN2CC[C@H](F)C2)ccc1Nc1ncc2c(n1)N(C1CCCC1)CC(C)(C)C(=O)N2C
8. CN1C(=O)C(C)(C)CN(C2CCCC2)c2nc(Nc3ccc(-n4cncn4)cc3)ncc21

1: > 8.00; 2: > 8.00; 3: > 8.00; 4: > 8.00; 5: > 8.00; 6: 7.00 to 8.00; 7: > 8.00; 8: 7.00 to 8.00

---

pKi: −log10 of the molar value.
Plk1 (Homo sapiens) measurements of pKi, listed per entry.

CN1C(=O)C(C)(C)CN(C2CCCC2)c2nc(Nc3cccc4c3CNC4=O)ncc21 [Compound I-124] = 7.00 to 8.00
COc1cc(C(=O)NCc2ccccc2)ccc1Nc1ncc2c(n1)N(C1CCCC1)CC(C)(C)C(=O)N2C [Compound I-201] = > 8.00
COc1cc(C(=O)NCc2ccco2)ccc1Nc1ncc2c(n1)N(C1CCCC1)CC(C)(C)C(=O)N2C [Compound I-193] = > 8.00

Proceed to the following item.
Entry under test: COC(=O)Nc1cccc(Nc2ncc3c(n2)N(C2CCCC2)CC(C)(C)C(=O)N3C)c1 [Compound I-155] . Its pKi was 7.00 to 8.00

---

Answer each item with its documented Ki.
SYSTEM_UNDER_TEST: Plk1 (Homo sapiens)
PROCEDURE_DETAILS: biochemical

Consider the reported Ki for these molecules:
COc1ccc(NC(=O)c2ccc(Nc3ncc4c(n3)N(C3CCCC3)CC(C)(C)C(=O)N4C)c(OC)c2)cc1 = < 10 nM
COc1cc(C(=O)NC2CCCC2)ccc1Nc1ncc2c(n1)N(C1CCCC1)CC(C)(C)C(=O)N2C = < 10 nM
CN1C(=O)C(C)(C)CN(C2CCCC2)c2nc(Nc3ccc4c(c3)C(=O)C(=O)N4)ncc21 = 10 to 100 nM
CNC(=O)c1ccc(Nc2ncc3c(n2)N(C2CCCC2)CC2(CC2)C(=O)N3C)c(OC)c1 = < 10 nM
CC(=O)Nc1cccc(Nc2ncc3c(n2)N(C2CCCC2)CC(C)(C)C(=O)N3C)c1 = 10 to 100 nM

Answer for every listed entry: what is its Ki? The entries follow.
1. CCOc1cc(C(=O)NC2CCN(C)CC2)ccc1Nc1ncc2c(n1)N(C1CCCC1)CC(C)(C)C(=O)N2C
2. CC[C@H]1CN(C2CCCC2)c2nc(Nc3ccc(C(=O)NC4CCC4)cc3OC)ncc2N(C)C1=O
3. COc1cc(C(=O)NCC2CCCC2)ccc1Nc1ncc2c(n1)N(C1CCCC1)CC(C)(C)C(=O)N2C
4. COC[C@H](C)NC(=O)c1ccc(Nc2ncc3c(n2)N(C2CCCC2)CC(C)(C)C(=O)N3C)c(OC)c1

1. < 10 nM
2. < 10 nM
3. < 10 nM
4. < 10 nM

Answer for every listed entry: what is its Ki? The entries follow.
1. COc1cc(C(=O)N[C@@H]2CC[C@@H](CO)C2)ccc1Nc1ncc2c(n1)N(C1CCCC1)CC(C)(C)C(=O)N2C
2. COc1cc(C(=O)NC(C)(CO)CO)ccc1Nc1ncc2c(n1)N(C1CCCC1)CC(C)(C)C(=O)N2C

1. < 10 nM
2. < 10 nM

Answer for every listed entry: what is its Ki? The entries follow.
1. CNC(=O)c1ccc(Nc2ncc3c(n2)N([C@@H]2CCN(C)C2)CC(C)(C)C(=O)N3C)c(OC)c1
2. COc1cc(C(=O)NC2CCOCC2)ccc1Nc1ncc2c(n1)N(C1CCCC1)CC1(CC1)C(=O)N2C

["10 to 100 nM", "< 10 nM"]

Answer for every listed entry: what is its Ki? The entries follow.
1. CN1CCC(C(=O)Nc2cccc(Nc3ncc4c(n3)N(C3CCCC3)CC(C)(C)C(=O)N4C)c2)CC1
2. COc1cc(C(=O)NCCc2ccccc2)ccc1Nc1ncc2c(n1)N(C1CCCC1)CC(C)(C)C(=O)N2C

["< 10 nM", "< 10 nM"]

---

SYSTEM_UNDER_TEST: Plk1 (Homo sapiens)
MEASUREMENT_TYPE: Ki

Consider the reported Ki for these compounds:
Cc1cc(O)n(-c2ccc(Nc3ncc4c(n3)N(C3CCCC3)CC(C)(C)C(=O)N4C)cc2)n1 = 10 to 100 nM
COC(=O)Nc1ccc(Nc2ncc3c(n2)N(C2CCCC2)CC(C)(C)C(=O)N3C)c(OC)c1 = < 10 nM
COc1cc(C(=O)NC2CCN(C)CC2)ccc1Nc1ncc2c(n1)N(C1CCCC1)CC1(CC1)C(=O)N2C = < 10 nM
COc1cc(C(=O)NCCc2cncn2C)ccc1Nc1ncc2c(n1)N(C1CCCC1)CC(C)(C)C(=O)N2C = < 10 nM

Answer for every listed entry: what is its Ki? The entries follow.
1. CNC(=O)c1ccc(Nc2ncc3c(n2)N(c2cccc(Cl)c2)CC(C)(C)C(=O)N3C)c(OC)c1
2. COc1cc(C(=O)NCCN2CCOCC2)ccc1Nc1ncc2c(n1)N(C1CCCC1)CC(C)(C)C(=O)N2C
3. COc1cc(C(=O)N[C@H]2CC[C@H](O)CC2)ccc1Nc1ncc2c(n1)N(C1CCCC1)CC1(CC1)C(=O)N2C
4. CN1C(=O)C(C)(C)CN(C2CCCC2)c2nc(Nc3ccc4cn[nH]c4c3)ncc21
5. CN1C(=O)C(C)(C)CN(C2CCCC2)c2nc(Nc3ccc4ncsc4c3)ncc21
6. COc1cc(C(=O)NCC2CCOCC2)ccc1Nc1ncc2c(n1)N(C1CCCC1)CC(C)(C)C(=O)N2C
7. COc1cc(C(=O)NC2CC(F)(F)C2)ccc1Nc1ncc2c(n1)N(C1CCCC1)CC1(CC1)C(=O)N2C

1: 10 to 100 nM; 2: < 10 nM; 3: < 10 nM; 4: < 10 nM; 5: 10 to 100 nM; 6: < 10 nM; 7: < 10 nM
